In this section, each of the binders is paired with its reported IC50 (read off the curve).
target.entity: T1, recombinant human PCSK9 (human, UniProt Q8NBP7 31-692)
T1 construct: also called hPCSK9
protocol.notes: ELISA, blocking: biotinylated human PCSK9 (0.4nM) binding to immobilized human LDLR extracellular domain, pH7.5

// worked examples, IC50 (read off the curve) included
Lookup: Which IC50 (read off the curve) value belongs to anti-PCSK9 antagonist monoclonal antibody 6F6 (antibody, V domains shown, Murine full-length IgG from a hybridoma; also called 6F6.G10.3 (subclone); ATCC PTA-8984) VH: EVQLQQSGPELVKPGASVKISCKASGYTFTDYYMNWVKQSHGKSLEWIGDINPNNGGTSYNQKFKGKATLTVDKSSSTAYMELRSLTSEDSAVYYCAGGGIYYRYDRNYFDYWGQGTTLTVSS VL: DIQMTQTTSSLSASLGDRVTISCSASQGISNYLNWYQQKPDGTVKLLIYYTSSLHSGVPSRFSGSGSGTDYSLTISNLEPEDIATYYCQQYSKLPFTFGSGTKLEIK ?
Found: ~2 nM

Lookup: Which IC50 (read off the curve) value belongs to anti-PCSK9 antagonist monoclonal antibody 4A5 (antibody, V domains shown, Murine full-length IgG from a hybridoma; also called 4A5.G3 (subclone); ATCC PTA-8985) VH: EVQLQQSGPELVKPGASVKISCKASGYTFTDYYMNWVKQSHGKSLEWIGDINPNNGGTTYNQKFKGKATLTVDKSYSTAYMELRSLTSEDSAVYYCARWLLFAYWGQGTLVTVSA VL: DIVMTQSQKFMSTSVGDRVSVTCKASQNVGTNVAWYQQKPGQSPKALIYSASYRYSGVPDRFTGSGSGTDFTLTISNVLSEDLAEYFCQQFYSYPYTFGGGTKLEIKR ?
Found: ~0.2 nM

Lookup: Which IC50 (read off the curve) value belongs to anti-PCSK9 antagonist monoclonal antibody 7D4 (antibody, V domains shown, Murine full-length IgG from a hybridoma; also called 7D4.4 (subclone); ATCC PTA-8983) VH: EVKLVESEGGLVQPGSSMKLSCTASGFTFSDYYMAWVRQVPEKGLEWVANINYDGSNTSYLDSLKSRFIISRDNAKNILYLQMSSLKSEDTATYYCAREKFAAMDYWGQGTSVTVSS VL: DIVMTQSHKFMSTSFGDRVSITCKASQDVSNALAWYQQKPGHSPKLLIFSASYRYTGVPDRFTGSGSGTDFTFTISSVQAEDLAVYYCQQHYSTPWTFGGGTKLEIKR ?
Found: ~1 nM

--- query ---
Lookup: Which IC50 (read off the curve) value belongs to anti-PCSK9 antagonist monoclonal antibody 5A10 (antibody, V domains shown, Murine full-length IgG from a hybridoma; Mouse precursor of L1L3; also called 5A10.B8 (subclone)) VH: QVQLQQPGAELVKPGASVKLSCKASGYTFTSYWMHWVKQRPGQGLEWIGEINPSNGRTNYNEKFKSKATLTVDKSSSTAYMQLSSLTSEDSAVYYCARERPLYAMDYWGQGTSVTVSS VL: DIVMTQSHKFMSTSVGDRVSITCKASQDVSTAVAWYQQKPGQSPKLLIYSASYRYTGVPDRFTGSGSGTDFTFTISSVQAEDLAVYYCQQRYSTPRTFGGGTKLEIKR ?
Found: ~0.3 nM
